Would you mind telling me the reported pIC50 of each entry?
measured.on: UniProt:P16184
Sequence (P16184 whole entry): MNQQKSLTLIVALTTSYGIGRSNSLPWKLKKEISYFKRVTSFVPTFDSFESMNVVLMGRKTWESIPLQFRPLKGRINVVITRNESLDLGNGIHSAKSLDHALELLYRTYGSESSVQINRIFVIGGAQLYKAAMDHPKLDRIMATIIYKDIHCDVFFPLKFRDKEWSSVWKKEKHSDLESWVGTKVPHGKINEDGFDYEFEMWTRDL
One number for each entry, as −log10 of the molar value.

COc1cc(C)c2c(OC3CCCCC3C(F)(F)F)c(OC)cc(NC(C)CCCN)c2n1 (configuration not stated)
6.15

Now turn to the next molecule.
Lab note: measured pIC50 of CCc1nc2nc(N)nc(N)c2nc1CC was 6.21
